Target: Progesterone receptor (Oryctolagus cuniculus)
Assay: Binding affinity towards rabbit progesterone receptor
pIC50: −log10 of the molar value.
# binarize pIC50: threshold 6 inclusive, high side Yes, low side No

Inquiry: Does the compound O=C(c1ccc([N+](=O)[O-])cc1)N1CCCC(c2ccc(Cl)cc2)=N1 have recorded pIC50 that is 6 or more?
Reply text: Yes

Inquiry: I'd appreciate it if you could say whether O=C(c1cc(Cl)cc(Cl)c1)N1CCCC(c2ccc(Br)cc2)=N1 has pIC50 at least equal to 6.
Reply text: Yes

Inquiry: Determine whether measured pIC50 meets or exceeds 6 for O=C(c1ccc(Cl)c(Cl)c1)N1CCCC(c2ccccc2)=N1
Reply text: No

Inquiry: Does the compound O=C(c1ccc(Cl)c(Cl)c1)N1CCCC(c2ccc(F)cc2)=N1 have recorded pIC50 that is 6 or more?
Reply text: Yes

Inquiry: Please indicate if the recorded pIC50 for O=C(c1ccc(Cl)cc1)N1CCCC(c2ccc(Cl)cc2)=N1 meets or exceeds 6.
Reply text: No

Inquiry: Is pIC50 for O=C(c1ccc([N+](=O)[O-])cc1)N1CCCC(c2ccc(Cl)c(Cl)c2)=N1 at or above 6?
Reply text: Yes

Inquiry: API: above_or_equal(metric=pIC50, cutoff=6) for item O=C(c1ccc(Cl)c(Cl)c1)N1CCCC(c2ccc(Cl)c(Cl)c2)=N1
Reply text: Yes
